Test system: Plasmodium berghei (Pb-Luc) exoerythrocytic-stage parasites
assayConditions: read-out: Pb-Luc IC50; Figure 4a, stereoisomers tested in dose response
reportedEndpoint: pIC50
In textbook form, pIC50 equals minus log to base ten of the concentration in mol/L.

Q) Look up pIC50 of CS(=O)(=O)N1[C@H](C#N)[C@H](c2ccc(C#Cc3cccc(F)c3)cc2)[C@H]1CO and report it.
A) 6.82

###

Listing of entries alongside the reported cytotoxicity at 50 µM.
Test system: HepG2-A16-CD81EGFP cells
protocolNotes: cells
assayConditions: Homo sapiens, HepG2, read-out: HepG2 Tox% @ 50 uM rep2
Expressed in %, but write only the number.

CCCc1c(C)nc2ccccc2c1O; -5.31
CCOc1cc(Cl)c(C(C)NC(=O)c2ccccc2)cc1OCC (centres unmarked); 21
c1ccc(Cn2c(N=Nc3c(Nc4ccccc4)ccc4ccccc34)nc3ccccc32)cc1; 86

Q) State recorded cytotoxicity at 50 µM with HepG2-A16-CD81EGFP cells, entry c1ccc2cc3c(Nc4ccc(N5CCOCC5)cc4)ccnc3cc2c1 , no comment.
A) 99

Q) State recorded cytotoxicity at 50 µM with HepG2-A16-CD81EGFP cells, entry Cc1cc(Nc2ccc(C)c(Cl)c2)n2nc(C(F)(F)F)nc2n1 , no comment.
A) 95

###

Test system: HepG2-A16-CD81EGFP cells
protocolNotes: cells
assayConditions: Homo sapiens, HepG2, read-out: % inhibition
reportedEndpoint: inhibition at 50 µM (%)
Expressed in %, but write only the number.

// solved cases for inhibition at 50 µM follow
CCOc1cccc2sc(N(Cc3cccnc3)C(=O)C3CCCCC3)nc12; 97.3
O=C(Nc1ccc(Cl)cc1)N1CCN(c2ccc3nncn3n2)CC1; 38.3
Oc1ccc(Cl)cc1CNc1nc2ccccc2[nH]1; 98.1
COc1ccc(-c2cn3c(C(=O)Nc4ccccc4Cl)c(-c4ccccc4)c4c3n2CCCC4)cc1; 52.5

Q) Look up inhibition at 50 µM of CCOC(=O)C1=C(C)N=c2sc(=Cc3cc(Cl)ccc3O)c(=O)n2C1c1ccc(OC)cc1 (centres unmarked) and report it.
A) 99.7

###

Test system: Plasmodium berghei (Pb-Luc) exoerythrocytic-stage parasites
assayConditions: concentration 10, first series of dose columns
reportedEndpoint: normalised signal at concentration 10 (first series)

// solved cases for normalised signal at concentration 10 (first series) follow
C[C@@H]1CN([C@@H](C)CO)C(=O)c2cccc(NC(=O)c3ccc(-c4nccs4)cc3)c2O[C@@H]1CN(C)C(=O)Nc1ccc(C(F)(F)F)cc1 [BRD-K43504903-001-01-1]; 0.4042
COc1cccc(NC(=O)N[C@@H]2CC[C@H](CC(=O)N3CCN(C)CC3)O[C@@H]2CO)c1 [BRD-K48690594-001-01-7]; 0.9136
COc1ccccc1S(=O)(=O)N(C)C[C@@H]1OCc2ccccc2-c2ccccc2C(=O)N([C@H](C)CO)C[C@@H]1C [BRD-K88384060-001-01-3]; 0.8642
C[C@@H]1CCCCO[C@@H](CN(C)S(=O)(=O)c2ccc(F)cc2)[C@H](C)CN([C@H](C)CO)C(=O)c2cc(N(C)C)ccc2O1 [BRD-K17570530-001-01-5]; 0.8313
COc1ccc(NC(=O)N(C)C[C@H]2Oc3c(NC(=O)CCCCCC(=O)Nc4ccccc4N)cccc3C(=O)N([C@@H](C)CO)C[C@H]2C)cc1 [BRD-K03339938-001-01-9]; 1.4773

As a next step, examine the compound that follows.
Q) Look up normalised signal at concentration 10 (first series) of C[C@H](CO)N1C[C@H](C)[C@@H](CN(C)S(=O)(=O)c2ccc(F)cc2)OCCCC[C@H](C)Oc2ccc(N(C)C)cc2C1=O [BRD-K31169989-001-01-4] and report it.
A) 0.5392
